Read-out record for Carbonic anhydrase 9 (Homo sapiens, UniProt Q16790): pKi
The quantity pKi is defined as the negative base-10 logarithm of the molar concentration.

Consider the worked cases shown below.
{"Smiles structure": "NS(=O)(=O)c1ccc(CCn2c(SCc3ccc(F)cc3)nc3ccccc3c2=O)cc1", "Result number": 7.71}
{"Smiles structure": "NS(=O)(=O)c1ccc(CCn2c(SCc3ccccc3)nc3ccccc3c2=O)cc1", "Result number": 7.71}
{"Smiles structure": "NS(=O)(=O)c1ccc(N/C=C/C(=O)c2ccc(F)cc2)cc1", "Result number": 9.68}
{"Smiles structure": "NS(=O)(=O)c1ccc(N/C=C/C(=O)c2ccc(Cl)cc2)cc1", "Result number": 9.68}
{"Smiles structure": "NS(=O)(=O)c1ccc(N/C=C/C(=O)c2ccc([N+](=O)[O-])cc2)cc1", "Result number": 9.68}
{"Smiles structure": "NS(=O)(=O)c1ccc(CCn2c(SCc3ccc(Cl)cc3)nc3ccccc3c2=O)cc1", "Result number": 7.71}

Report pKi for O=C1c2ccccc2C(=O)N1CCCSc1nc2ccccc2c(=O)n1CCc1ccccc1 please.
7.71

Record request: pKi value, item NS(=O)(=O)c1ccc(C(=O)N/N=C/c2ccc(O)cc2)cc1
8.07

Which measured pKi value corresponds to NS(=O)(=O)c1ccc(N/C=C/C(=O)c2ccc3ccccc3c2)cc1 ?
9.68

Please look up its pKi: COc1ccc([SeH])cc1
6.74

----------
Ki data for Carbonic anhydrase 9 (Homo sapiens, UniProt Q16790) follow.
Just the number please, in µM, no unit attached.

Observe how each entry below is paired with its result.
{"Smiles structure": "NS(=O)(=O)c1cccc(-c2nc(-c3cccnc3)no2)c1", "Ki / µM": 0.0012}
{"Smiles structure": "O=S1(=O)C=Cc2cc(-n3cc(-c4ccc(Cl)cc4)nn3)ccc2O1", "Ki / µM": 0.0069}

Look up Ki for this compound: NS(=O)(=O)c1ccc(NCC(=O)N/N=C2\C(=O)N(C(=O)c3ccccc3)c3ccccc32)cc1
0.0653

I am curious: what Ki value has been reported for C/C(=N\NC(=O)c1ccc(S(N)(=O)=O)cc1)c1ccc(N2C(=O)c3ccc(C)cc3C2=O)cc1 ?
0.0173

----------
Experimental target: Carbonic anhydrase 2 (Homo sapiens)
Assay readout: pKi
Units for pKi: none; it is -log10 of a concentration expressed in mol/L.

{"Smiles structure": "Brc1ccc(/N=N/c2c(-c3ccccc3)nn(-c3ccc(Br)cc3)c2-c2ccccc2)cc1", "Experimental target": "Carbonic anhydrase 2 (Homo sapiens)", "pKi": 9.17}
{"Smiles structure": "Cn1nc(-c2ccccc2)c(/N=N/c2ccc(Br)cc2)c1-c1ccccc1", "Experimental target": "Carbonic anhydrase 2 (Homo sapiens)", "pKi": 9.17}
{"Smiles structure": "Brc1ccc(/N=N/c2c(-c3ccccc3)nn(-c3ccccc3)c2-c2ccccc2)cc1", "Experimental target": "Carbonic anhydrase 2 (Homo sapiens)", "pKi": 9.17}

Need pKi of Cc1ccc(-n2nc(-c3ccccc3)c(/N=N/c3ccc(Br)cc3)c2-c2ccccc2)cc1C , thanks.
9.17

Data request, read-out pKi, for O=[N+]([O-])c1ccccc1-n1nc(-c2ccccc2)c(/N=N/c2ccc(Br)cc2)c1-c1ccccc1
9.17

----------
// values below are reported pKi
Experimental target: Carbonic anhydrase 9 (Homo sapiens, UniProt Q16790)
Conceptually, pKi converts a concentration in mol/L into minus its log10.

Recorded pKi, per entry:
{"Molecule": "COc1ccc2nc(S/C(=N/Nc3ccc(S(N)(=O)=O)cc3)C(C)=O)n(-c3ccccc3)c(=O)c2c1", "Result number": 8.80}
{"Molecule": "C/C(=N\\O)c1ccc(N2C(=O)C3C(C2=O)C2(Cl)C(Cl)=C(Cl)C3(Cl)C2(Cl)Cl)cc1 (stereo unspecified)", "Result number": 6.77}
{"Molecule": "C/C(=N\\O)c1ccc(N2C(=O)C3CC=CCC3C2=O)cc1 (stereo unspecified)", "Result number": 6.77}
{"Molecule": "NS(=O)(=O)c1ccc(N/N=C2\\C(=O)N(Cc3ccccc3)c3ccccc32)cc1", "Result number": 7.86}
{"Molecule": "CN1C(=O)/C(=N\\NC(=O)CNc2ccc(S(N)(=O)=O)cc2)c2ccccc21", "Result number": 7.86}

Field: pKi (Carbonic anhydrase 9 (Homo sapiens, UniProt Q16790)). Entry: O=S1(=O)C=Cc2cc(-n3nncc3-c3ccc(F)cc3)ccc2O1
8.16

# query: pKi | item CN1C(=O)/C(=N\Nc2ccc(S(N)(=O)=O)cc2)c2ccccc21 | system: Carbonic anhydrase 9 (Homo sapiens, UniProt Q16790)
7.86

Please state recorded pKi (tested on Carbonic anhydrase 9 (Homo sapiens, UniProt Q16790)) of O=S1(=O)C=Cc2cc(-c3nnnn3-c3ccccc3)ccc2O1
8.16

Quick check: pKi on Carbonic anhydrase 9 (Homo sapiens, UniProt Q16790), item C/C(=N\NC(=O)c1ccc(S(N)(=O)=O)cc1)c1ccc(N2C(=O)C3C(C2=O)C2(Cl)C(Cl)=C(Cl)C3(Cl)C2(Cl)Cl)cc1 (stereo unspecified) ?
7.76

Query for Carbonic anhydrase 9 (Homo sapiens, UniProt Q16790): what pKi does the record show for O=C(O)CN1C(=O)S/C(=C/c2ccc(Cl)cc2)C1=O ?
5.51

----------
System: SH-SY5Y
Method description: cells
Format: functional, cell-based
Test parameters: Homo sapiens, 48 h
Description: Cytotoxicity against human SH-SY5Y cells assessed as cell growth inhibition measured after 48 hrs by MTT assay
Assay readout: pIC50
In simple prose, pIC50 is minus the logarithm base ten of a concentration in moles per litre.

Worked cases, pIC50 given:
{"Smiles structure": "O=S1(=O)C=Cc2cc(-n3cc(-c4ccc(Cl)cc4)nn3)ccc2O1", "Assay readout": "pIC50", "Result number": 4.74}
{"Smiles structure": "O=S1(=O)C=Cc2cc(-c3nnnn3-c3ccccc3)ccc2O1", "Assay readout": "pIC50", "Result number": 4.74}

Now for a further molecule.
Which value of pIC50 has been reported for O=S1(=O)C=Cc2cc(-c3nnnn3-c3ccc(F)c(Cl)c3)ccc2O1 in the records?
4.74

----------
pKi: −log10 of the molar value.
Each entry below carries its measured pKi, system: UniProt:P00918.

Use the examples below as a reference point.
{"Smiles structure": "NS(=O)(=O)c1ccc(CCN2C(=O)c3ccc(C(=O)O)cc3C2=O)cc1", "Result": 7.59}
{"Smiles structure": "NS(=O)(=O)c1ccc(N2C(=O)c3ccc(C(=O)O)cc3C2=O)cc1", "Result": 7.59}
{"Smiles structure": "COC(=O)c1ccc2c(c1)C(=O)N(CCc1ccccc1)C2=O", "Result": "< 5.00"}
{"Smiles structure": "O=C(O)c1ccc(N2C(=O)c3ccc(C(=O)O)cc3C2=O)cc1", "Result": "< 5.00"}
{"Smiles structure": "COC(=O)c1ccc2c(c1)C(=O)N(Cc1ccccc1)C2=O", "Result": "< 5.00"}

What measured pKi is associated with O=C(O)c1ccc2c(c1)C(=O)N(c1ccccc1)C2=O on UniProt:P00918?
< 5.00

----------
A short record of Ki observed with Carbonic anhydrase 9 (Homo sapiens) follows.
Report as a plain number; the unit nM is understood.

Sample answers from the record:
{"Compound": "CCN1C(=O)/C(=N\\c2ccc(S(N)(=O)=O)cc2)c2ccccc21", "Unit spec": "nM", "Ki": 13.9}
{"Compound": "C=CCN1C(=O)/C(=N\\c2ccc(S(N)(=O)=O)cc2)c2ccccc21", "Unit spec": "nM", "Ki": 13.9}
{"Compound": "C/C(=N\\O)c1ccc(N2C(=O)c3c(Br)c(Br)c(Br)c(Br)c3C2=O)cc1", "Unit spec": "nM", "Ki": 169}
{"Compound": "C/C(=N\\NC(=O)c1ccc(S(N)(=O)=O)cc1)c1ccc(N2C(=O)c3ccc(C(=O)O)cc3C2=O)cc1", "Unit spec": "nM", "Ki": 17.3}
{"Compound": "C/C(=N\\O)c1ccc(N2C(=O)c3ccc(C(C)(C)C)cc3C2=O)cc1", "Unit spec": "nM", "Ki": 169}
{"Compound": "Cc1ccc(-c2cc(C(F)(F)F)nn2-c2ccc(S(N)(=O)=O)cc2)cc1 [CELECOXIB]", "Unit spec": "nM", "Ki": 14.8}
{"Compound": "C=CCN1C(=O)/C(=N\\NC(=O)CNc2ccc(S(N)(=O)=O)cc2)c2ccccc21", "Unit spec": "nM", "Ki": 13.9}
{"Compound": "C/C(=N\\O)c1ccc(N2C(=O)c3ccc(C)cc3C2=O)cc1", "Unit spec": "nM", "Ki": 169}

Provide the documented Ki with Carbonic anhydrase 9 (Homo sapiens) as the system for C/C(=N\O)c1ccc(N2C(=O)c3c(Cl)c(Cl)c(Cl)c(Cl)c3C2=O)cc1
169

----------
For reference, Ki measured on Carbonic anhydrase 9 (Homo sapiens):

Illustrative cases are given below, each with its answer.
{"Smiles structure": "NS(=O)(=O)c1ccc(CN2C(=O)c3ccc(C(=O)O)cc3C2=O)cc1", "Result": "54.1 nM"}
{"Smiles structure": "O=C(O)c1ccc2c(c1)C(=O)N(Cc1ccccc1)C2=O", "Result": "> 10000 nM"}
{"Smiles structure": "COC(=O)c1ccc2c(c1)C(=O)N(CCc1ccccc1)C2=O", "Result": "> 10000 nM"}
{"Smiles structure": "COC(=O)c1ccc2c(c1)C(=O)N(c1ccc(C(=O)O)cc1)C2=O", "Result": "> 10000 nM"}
{"Smiles structure": "O=C(O)c1ccc2c(c1)C(=O)N(c1ccccc1)C2=O", "Result": "> 10000 nM"}

Give the measured Ki of COC(=O)c1ccc2c(c1)C(=O)N(Cc1ccc(S(N)(=O)=O)cc1)C2=O .
54.1 nM

Return reported Ki; argument: CCOC(=O)c1ccc(N2C(=O)c3ccc(C(=O)OC)cc3C2=O)cc1
> 10000 nM

# Ki lookup, item NS(=O)(=O)c1ccc(CCN2C(=O)c3ccc(C(=O)O)cc3C2=O)cc1
54.1 nM

Dear colleague, I am looking for the recorded Ki of the following molecule: COC(=O)c1ccc2c(c1)C(=O)N(Cc1ccccc1)C2=O
> 10000 nM

What does the record list as Ki for COC(=O)c1ccc2c(c1)C(=O)N(c1ccc(S(N)(=O)=O)cc1)C2=O ?
46 nM

Which Ki reading was recorded for the molecule COC(=O)c1ccc2c(c1)C(=O)N(CCc1ccc(S(N)(=O)=O)cc1)C2=O ?
54.1 nM

# query: Ki of entry O=C(O)c1ccc2c(c1)C(=O)N(CCc1ccccc1)C2=O
> 10000 nM

# lookup: Ki of O=C(O)c1ccc(N2C(=O)c3ccc(C(=O)O)cc3C2=O)cc1
> 10000 nM
